Experiment: CCTE_Shafer_MEA_acute_LDH: CCTE's Lactate Dehydrogenase Assay for Cytotoxicity in the Neural Acute Assay, Shafer Lab (AID 2284086);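 also: active means LDH release rises above DMSO vehicle level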
Method: CCTE_Shafer_MEA_acute assay is conducted using Axion Biosystems 48 well microelectrode array (MEA) plates and Maestro recording system. Each well of the MEA plate contains a grid of 16 microelectrodes embedded in the culture surface. Electrically active cells, such as neurons, can be cultured over the electrodes, and electrical activity in these cells can be recorded extracellularly. […]
Records with an inconclusive call do not appear. Active and inactive are the calls of the source. The calls were made as follows: active = hit-call score of the fitted dose curve at least 0.9, where 1 is the maximum; inconclusive = response in the unintended direction; inactive = score below 0.9.
PARAMETER MEASURED: outcome

[[record]]
compound = "O=C(O)c1cc(N=Nc2ccc(S(=O)(=O)Nc3ccccn3)cc2)ccc1O"
reported_result = "inactive"

[[record]]
compound = "COc1ccc2sc(C(=O)Nc3nnn[nH]3)c(OC(C)C)c2c1"
reported_result = "inactive"

[[record]]
compound = "CC(C)=CCCC(C)=CC=O"
reported_result = "inactive"

[[record]]
compound = "CC[C@H]1OC(=O)[C@H](C)[C@@H](O[C@H]2C[C@@](C)(OC)[C@@H](O)[C@H](C)O2)[C@H](C)[C@@H](O[C@@H]2O[C@H](C)C[C@H](N(C)C)[C@H]2O)[C@](C)(O)C[C@@H](C)C(=O)[C@H](C)[C@@H](O)[C@]1(C)O"
reported_result = "inactive"

[[record]]
compound = "CCCCC(CC)COC(=O)CCCCCCCCC(=O)OCC(CC)CCCC (stereo not given)"
reported_result = "inactive"

[[record]]
compound = "CCCCCCCCCCCCc1ccccc1"
reported_result = "inactive"

[[record]]
compound = "Cn1cnc([N+](=O)[O-])c1Sc1ncnc2nc[nH]c12"
reported_result = "inactive"

[[record]]
compound = "CCCCCCc1ccc(O)cc1O"
reported_result = "inactive"

[[record]]
compound = "On1ccccc1=S"
reported_result = "inactive"

[[record]]
compound = "CCOC(=O)c1ccc(C2CCC(NC[C@H](O)COc3ccc(O)c(NS(C)(=O)=O)c3)CC2)cc1 (stereo not given in full)"
reported_result = "inactive"


----------
test: APR_HepG2_CellLoss_72hr: Apredica 72-hour HepG2 Assay for Cell Loss (AID 2282915); settings: high-content imaging
Activity calls are given as the source filed them. Rule for the calls: active = hit-call score of the fitted dose curve at least 0.9, where 1 is the maximum; inactive = score below 0.9.
PARAMETER MEASURED: AC50

[[record]]
compound = "CCN(C(=O)c1cc(C)cc(OC[C@H](C)Nc2ccncc2)c1)C(C)C"
parameter_measured = "AC50"
reported_result = "inactive"

[[record]]
compound = "CNS(=O)(=O)c1cc(C(=O)N2CCC(CCN3C4CCC3CC(n3c(C)nc5ccccc53)C4)(c3cccc(F)c3)CC2)c(Cl)cc1F (centres undefined)"
parameter_measured = "AC50"
reported_result = "24 µM (active)"

[[record]]
compound = "COCCOc1cc2cc(C(=O)NC3CCN(C(C)C)CC3)n(CC(=O)Nc3ccc(Cl)cn3)c2cn1"
parameter_measured = "AC50"
reported_result = "93.1 µM (active)"

[[record]]
compound = "CC(C)=CCC/C(C)=C\\CO"
parameter_measured = "AC50"
reported_result = "inactive"


----------
read-out: ABC Transporter (ABCB11), ABCB11 (gene 8647); assay: LTEA_HepaRG_ABCB11: Life Technologies and Expression Analysis (LTEA) Assay for ABC Transporter (ABCB11) using HepaRG (AID 2283463); settings: mRNA level, 48 h; actives raise or lower the signal
Activity calls are given as the source filed them. How the source made its calls: active means hit-call score of the fitted dose curve at least 0.9, where 1 is the maximum; inactive means score below 0.9.
Possible outcomes: t for active, f for inactive

[[record]]
molecule = "Oc1ccc2c(c1)-c1ccccc1C2"
category = "t"

[[record]]
molecule = "Nc1cccc(N)c1"
category = "f"

[[record]]
molecule = "CCN(C(=O)c1cc(C)cc(OC[C@H](C)Nc2ccncc2)c1)C(C)C"
category = "t"

[[record]]
molecule = "Cc1c(-c2cccnc2)c2ccccc2n1CCCCC(=O)O"
category = "f"

[[record]]
molecule = "CCc1cc(SCc2sc(-c3ccc(C(F)(F)F)cc3)nc2CN2CCN(c3ccc(OC)cc3)CC2)ccc1OCC(=O)O"
category = "t"

[[record]]
molecule = "O=C(O)CCN(C1(C(=O)NO)CCCC1)S(=O)(=O)c1ccc(Oc2ccc(F)cc2)cc1"
category = "f"

[[record]]
molecule = "CN(C)c1ccc(N=NS(=O)(=O)O)cc1"
category = "t"

[[record]]
molecule = "O=c1n(CC2CO2)c(=O)n(CC2CO2)c(=O)n1CC1CO1 (stereo unspecified)"
category = "t"

[[record]]
molecule = "COc1ccc(-n2nc(C(F)F)cc2-c2ccc(S(C)=O)cc2)cc1 (stereo unspecified)"
category = "t"

[[record]]
molecule = "CC(=O)c1ccc2c(c1)[C@H](NC(=O)c1ccc(F)cc1)[C@@H](O)C(C)(C)O2"
category = "f"

[[record]]
molecule = "Cn1c(=O)c2c(ncn2C)n(C)c1=O"
category = "f"

